For each entry below, report its relative viability value.
System: RD-ES
assay-name: relative viability vs DMSO control (72 h) (fraction); higher = more viable cells
settings: 0.1235 µM

Some solved entries appear below for comparison.
Find the recorded relative viability belonging to CC[C@@H]1C(=O)N(C)c2cnc(Nc3ccc(C(=O)N[C@H]4CC[C@H](N5CCN(CC6CC6)CC5)CC4)cc3OC)nc2N1C(C)C [Volasertib] and report it.
0.0248

Find the recorded relative viability belonging to COc1cc(OC)cc(N(CCNC(C)C)c2ccc3ncc(-c4cnn(C)c4)nc3c2)c1 [Erdafitinib] and report it.
0.873

Find the recorded relative viability belonging to CCN(c1cc(-c2ccc(CN3CCOCC3)cc2)cc(C(=O)NCc2c(C)cc(C)[nH]c2=O)c1C)C1CCOCC1 [Tazemetostat] and report it.
0.975

Find the recorded relative viability belonging to C[C@@H](Oc1cc(-c2cnn(C3CCNCC3)c2)cnc1N)c1c(Cl)ccc(F)c1Cl [Crizotinib] and report it.
0.911

Please examine the following record next.
Find the recorded relative viability belonging to Cc1nc(Nc2ncc(C(=O)Nc3c(C)cccc3Cl)s2)cc(N2CCN(CCO)CC2)n1 [Dasatinib] and report it.
0.927
